# Test system: Huh-7
# ASSAY METHOD TEXT: Antiproliferative activity against human HuH7 cells after 48 hrs by MTT assay
# Type: functional, cell-based
# ASSAY CONTEXT: Huh-7, 48 h
pEC50: −log10 of the molar value.
QUANTITY KIND: pEC50

[[record]]
structure = "O=[P@@]1(c2ccccc2)O[C@H](COCc2ccccc2)[C@@H](OCc2ccccc2)[C@H](OCc2ccccc2)[C@H]1O"
quantity_kind = "pEC50"
measured_result = 4.52


* * *

Reported pEC50 by item:
# Tested on: C6
# ASSAY METHOD TEXT: Antiproliferative activity against rat C6 cells after 48 hrs by MTT assay
# Type: functional, cell-based
# ASSAY CONTEXT: C6, 48 h
pEC50: −log10 of the molar value.
QUANTITY KIND: pEC50

[[record]]
compound = "O=[P@]1(c2ccccc2)O[C@H](COCc2ccccc2)[C@@H](OCc2ccccc2)[C@H](OCc2ccccc2)[C@@H]1O (single isomer, unassigned)"
relation_sign = "="
measured_result = 4.92

[[record]]
compound = "O=[P@]1(c2cccc(C(F)(F)F)c2)O[C@H](COCc2ccccc2)[C@@H](OCc2ccccc2)[C@H](OCc2ccccc2)[C@@H]1O"
relation_sign = "<"
measured_result = 4.60

[[record]]
compound = "Cc1ccc([P@@]2(=O)O[C@H](COCc3ccccc3)[C@@H](OCc3ccccc3)[C@H](OCc3ccccc3)[C@H]2O)cc1"
relation_sign = "<"
measured_result = 4.60

[[record]]
compound = "O=[P@@]1(c2ccccc2)O[C@H](COCc2ccccc2)[C@@H](OCc2ccccc2)[C@H](OCc2ccccc2)[C@@H]1O"
relation_sign = "="
measured_result = 4.62

[[record]]
compound = "O=[P@@]1(c2cccc(C(F)(F)F)c2)O[C@H](COCc2ccccc2)[C@@H](OCc2ccccc2)[C@H](OCc2ccccc2)[C@H]1O"
relation_sign = "<"
measured_result = 4.60

[[record]]
compound = "Cc1ccc([P@]2(=O)O[C@H](COCc3ccccc3)[C@@H](OCc3ccccc3)[C@H](OCc3ccccc3)[C@@H]2O)cc1"
relation_sign = "<"
measured_result = 4.60

[[record]]
compound = "Cc1cccc([P@]2(=O)O[C@H](COCc3ccccc3)[C@@H](OCc3ccccc3)[C@H](OCc3ccccc3)[C@@H]2O)c1"
relation_sign = "<"
measured_result = 4.60

[[record]]
compound = "COc1cccc([P@@]2(=O)O[C@H](COCc3ccccc3)[C@@H](OCc3ccccc3)[C@H](OCc3ccccc3)[C@@H]2O)c1"
relation_sign = "<"
measured_result = 4.60

[[record]]
compound = "O=[P@@]1(c2cccc(F)c2)O[C@H](COCc2ccccc2)[C@@H](OCc2ccccc2)[C@H](OCc2ccccc2)[C@@H]1O"
relation_sign = "<"
measured_result = 4.60

[[record]]
compound = "O=[P@@]1(c2cccc(F)c2)O[C@H](COCc2ccccc2)[C@@H](OCc2ccccc2)[C@H](OCc2ccccc2)[C@H]1O"
relation_sign = "<"
measured_result = 4.60

[[record]]
compound = "COc1ccc([P@@]2(=O)O[C@H](COCc3ccccc3)[C@@H](OCc3ccccc3)[C@H](OCc3ccccc3)[C@H]2O)cc1"
relation_sign = "="
measured_result = 4.82

[[record]]
compound = "O=[P@]1(c2ccccc2)C[C@@H](OCc2ccccc2)[C@H](OCc2ccccc2)[C@@H](COCc2ccccc2)O1"
relation_sign = "="
measured_result = 5.08

[[record]]
compound = "[N-]=[N+]=N[C@@H]1[C@@H](OCc2ccccc2)[C@H](OCc2ccccc2)[C@@H](COCc2ccccc2)O[P@@]1(=O)c1ccccc1"
relation_sign = "="
measured_result = 4.78

[[record]]
compound = "CSC(=S)O[C@@H]1[C@@H](OCc2ccccc2)[C@H](OCc2ccccc2)[C@@H](COCc2ccccc2)O[P@@]1(=O)c1ccccc1"
relation_sign = "="
measured_result = 4.85

[[record]]
compound = "Cc1ccc([P@@]2(=O)O[C@H](COCc3ccccc3)[C@@H](OCc3ccccc3)[C@H](OCc3ccccc3)[C@@H]2O)cc1"
relation_sign = "<"
measured_result = 4.60


Source of measurements: ChEMBL document CHEMBL2029220
